Entry source: patent US11365192B2

# TARGET_ENTITY: human CYP4F2 (Homo sapiens (Human))
# Sequence (P78329 5-520): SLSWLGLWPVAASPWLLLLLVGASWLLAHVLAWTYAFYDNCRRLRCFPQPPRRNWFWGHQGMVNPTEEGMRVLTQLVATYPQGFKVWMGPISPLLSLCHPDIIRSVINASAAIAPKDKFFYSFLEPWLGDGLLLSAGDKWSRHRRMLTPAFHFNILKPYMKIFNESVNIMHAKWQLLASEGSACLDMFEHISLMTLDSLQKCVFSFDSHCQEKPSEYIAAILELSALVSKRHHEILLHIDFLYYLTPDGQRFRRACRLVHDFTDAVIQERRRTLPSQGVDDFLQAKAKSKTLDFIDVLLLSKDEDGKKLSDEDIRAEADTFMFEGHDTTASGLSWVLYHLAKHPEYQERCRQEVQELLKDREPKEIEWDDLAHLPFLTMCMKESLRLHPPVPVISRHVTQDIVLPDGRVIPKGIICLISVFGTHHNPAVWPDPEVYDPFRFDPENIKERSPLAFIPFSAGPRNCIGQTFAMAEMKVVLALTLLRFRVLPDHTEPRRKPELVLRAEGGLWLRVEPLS
# PROTOCOL_TEXT: Inhibition test against 20-HETE producing enzyme CYP4F2 (luciferine derivative, luminescence)
# Format: biochemical
# CONDITION_DESCRIPTION: human CYP4F2, luciferine derivative, luminescence
MEASURED_METRIC: log10(IC50) (log10 of the value in nM)

>  <COMPOUND>
O=C(CCc1cccc(COc2cnc(-c3ccn[nH]3)c(F)c2)c1)N1CCC1

>  <log10(IC50)>
1.08

$$$$
>  <COMPOUND>
O=C(O)/C=C/c1ccc(CCOc2ccc(-c3ccn[nH]3)nc2)cc1

>  <log10(IC50)>
1.67

$$$$
>  <COMPOUND>
CN(C(=O)CCc1cccc(COc2ccc(-c3ccn[nH]3)nc2)c1)S(C)(=O)=O

>  <log10(IC50)>
1.65

$$$$
>  <COMPOUND>
C[C@H](O)CNC(=O)CCc1cccc(COc2ccc(-c3ccn[nH]3)nc2)c1

>  <log10(IC50)>
1.86

$$$$
>  <COMPOUND>
O=C(O)CC1CN(C(=O)c2cccc(COc3ccc(-c4ccn[nH]4)nc3)c2)C1

>  <log10(IC50)>
3.26

$$$$
>  <COMPOUND>
O=C(O)CC1CCCCN1C(=O)c1cccc(COc2ccc(-c3ccn[nH]3)nc2)c1 (stereo not drawn)

>  <log10(IC50)>
3.83

$$$$
